Target protein (sequence): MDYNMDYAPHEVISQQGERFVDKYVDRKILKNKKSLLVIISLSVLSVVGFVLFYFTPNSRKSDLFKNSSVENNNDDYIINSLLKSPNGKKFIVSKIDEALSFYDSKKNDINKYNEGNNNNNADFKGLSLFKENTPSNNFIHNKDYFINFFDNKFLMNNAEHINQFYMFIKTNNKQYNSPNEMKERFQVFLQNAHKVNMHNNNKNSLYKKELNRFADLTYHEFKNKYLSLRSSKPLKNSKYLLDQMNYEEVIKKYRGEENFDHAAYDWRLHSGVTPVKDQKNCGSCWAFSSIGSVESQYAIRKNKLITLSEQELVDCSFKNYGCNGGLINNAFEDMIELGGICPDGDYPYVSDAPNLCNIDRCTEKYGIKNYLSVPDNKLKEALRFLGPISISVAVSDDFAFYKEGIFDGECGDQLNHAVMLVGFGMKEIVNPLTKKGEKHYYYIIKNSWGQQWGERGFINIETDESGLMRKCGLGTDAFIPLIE
Decision: IC50 beneath 10 µM gives T; IC50 meeting or exceeding 10 µM gives F.

// below: answered compounds
In [3]: df
Out[3]:
                               smiles_entry  assigned_class
0  Cc1csc(Cn2nc(CC(=O)N/N=C/c3ccccc3)c3ccccc3c2=O)n1               F
1  Cc1ccc(S(=O)(=O)NC(=O)NCC2CCN(S(=O)(=O)c3ccccc3)CC2)cc1               F
2  O=S(=O)(NCc1ccco1)c1ccc2c(c1)Cc1cc(S(=O)(=O)NCc3ccco3)ccc1-2               T
3  N=C(CS(=O)(=O)Cc1ccc(F)cc1)NOC(=O)c1cccs1               F
4  COC(=O)c1sccc1NC(=O)CC(=O)Nc1ccsc1C(=O)OC               F

--- query ---
Task: For Cc1cccc(NC(=O)Cn2c(O)c(/N=N/C(=O)C(=O)NCc3ccccc3)c3ccccc32)c1 , is the recorded IC50 below the cut-off of 10 µM?
Output: T

* * *

System: Vero
Experiment: Cytotoxicity against Vero cells
Format: functional, cell-based
Conditions: Chlorocebus sabaeus
Some molecules, each annotated with its measured pIC50.
The meaning of pIC50 here: minus log10 of the concentration in molar units.

Some molecules with known pIC50 results, for comparison:
>>> df
                               smiles_entry  result_value
0  C[C@@H](C(=O)NCCS(=O)(=O)c1ccc(Br)cc1)S(=O)(=O)c1ccccc1          4.32
1  Cc1nc(NCCCn2ccnc2)cc(-c2cncc(-c3ccc(F)cc3)c2)n1          4.39

Task: Check Vero data and give pIC50 for c1ccc(-c2nc(NCCCn3ccnc3)cc(-c3cccnc3)n2)cc1 .
Output: 4.39

Task: Check Vero data and give pIC50 for Brc1cncc(-c2cc(NCCCn3ccnc3)nc(-c3ccccc3)n2)c1 .
Output: 4.49

* * *

Test system: Leishmania donovani
Assay: Antileishmanial activity against Leishmania donovani promastigotes
Assay type: functional, organism-based
Conditions: Leishmania donovani
observation.type: IC90

Some molecules with known IC90 results, for comparison:
>>> df
                               smiles_entry  result_value
0  Cc1nc(NCCCn2ccnc2)cc(-c2cncc(-c3ccc(F)cc3)c2)n1         85 µM
1  c1ccc(-c2nc(NCCCn3ccnc3)cc(-c3ccncc3)n2)cc1       98.2 µM
2     CSc1cc(CSc2ccc(Cl)cc2)nc(-c2ccccn2)n1        106 µM

Turning now to a further record.
Task: Check Leishmania donovani data and give IC90 for N=C(N)c1ccc(OCCCCCOc2ccc(C(=N)N)cc2)cc1 .
Output: 8.3 µM
